This collection of values is drawn from the supplement of paper PMC8728848.

biological target: Fuc(a1-4)GlcNAc; assay: glycan array binding signal (z-score within array); higher = stronger binding; conditions: glycan notation: IUPAC condensed, linker removed
Shown is part of a subset that was picked to be rich in the strongest signals.
Classification field: Fulfilled = glycan array binding signal (z-score) at or over 1; Not fulfilled = glycan array binding signal (z-score) under 1.

Take a look at these entries with their results.
Exam item: Record SP15308C-bot-338-23-338 (Bacteroides ovatus) (protein) DEWTDEQFKQLISFKTQPGGWGVTDVHVRYANSAKYTYNLPVLVSGSTDNTDDRLVSFSLRDDTLDILNFEKFGNRPELYFRELPQKYYSFPKELTIPAGQSHALLPIEFSLDGLDDSQKWALPLKVCEDANGTYAVNPRKYYRTAVLRPILFNEFSGRFSGSSLLGTMAGESDIKFSSTEIKLNVVTDSIVFFYAGQRTEDYEDRINYKVFLQFTGDKVDSKKDLYKMKIWAENEKLKFNSYSTPTYKVSSEMDATKTYLKHTYIVISDIDFDFVDYTSVPNYEIEYNMKGGLSVSRDLDTRKPDEDQGSDSKWW ; criterion: glycan array binding signal (z-score) no lower than 1. Met?
Marked response: Fulfilled

Exam item: Record DCIR1 (Mus musculus), Q9QZ15 (protein) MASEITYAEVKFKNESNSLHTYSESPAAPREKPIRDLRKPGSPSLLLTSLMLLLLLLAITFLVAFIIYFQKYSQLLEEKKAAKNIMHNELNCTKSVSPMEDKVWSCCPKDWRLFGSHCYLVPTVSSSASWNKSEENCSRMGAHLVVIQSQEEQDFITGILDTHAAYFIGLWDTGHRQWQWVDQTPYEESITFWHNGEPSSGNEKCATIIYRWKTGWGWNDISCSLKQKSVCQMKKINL ; criterion: glycan array binding signal (z-score) no lower than 1. Met?
Marked response: Not fulfilled

Exam item: Record SLR2P3F12 (Tachypleus tridentatus), TAL2_TACTR (protein) MEKGTPPTHDSDNWMGRAKKIGNGGWNQFQFLFFDPNGYLYAVSKDKLYKASPPQSDTDNWIARATEIGSGGWSGFKSLFFHPNGYLYAVHGQRLYKALPPVSNQD ; criterion: glycan array binding signal (z-score) no lower than 1. Met?
Marked response: Fulfilled

Continuing:
Exam item: Record MGL1 (Mus musculus), P49300 (protein) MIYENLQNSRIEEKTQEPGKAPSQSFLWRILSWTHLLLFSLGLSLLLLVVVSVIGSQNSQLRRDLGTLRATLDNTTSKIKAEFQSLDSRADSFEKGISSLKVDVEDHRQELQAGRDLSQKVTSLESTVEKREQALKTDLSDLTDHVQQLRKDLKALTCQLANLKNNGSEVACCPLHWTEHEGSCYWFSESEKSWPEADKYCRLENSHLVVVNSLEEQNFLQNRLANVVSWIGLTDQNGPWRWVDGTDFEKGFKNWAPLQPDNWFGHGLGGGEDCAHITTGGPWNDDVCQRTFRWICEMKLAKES ; criterion: glycan array binding signal (z-score) no lower than 1. Met?
Marked response: Not fulfilled

Exam item: Record Sebin2 (Coprinopsis cinerea), A8PE78 (protein) MTTPFYAYCHNVQDDNTWRLGLVFANRSTADEWWRAISEATSSIPITKSITRVTPQYYTHDIRVWNMYNFFVDGNIKSISDKFRGRLFITLEYDRSGRGVSVFPPLHIVDHVSGNWYYIRSKTAPHLFWFYDETRNAIYASKEKRTRFKVSIRNPSPQTPKDAIMINSDDVVIHIKESLYVGVDSYLGHIIPTRAYRTFKFGELEGGAIAGIEVAENAEERCSSTFDGASLYFVGPDSSSPGEPWELV ; criterion: glycan array binding signal (z-score) no lower than 1. Met?
Marked response: Fulfilled
